biological target: Calcium-activated potassium channel subunit alpha-1 (Homo sapiens) (UniProt Q12791); assay: Channel opening activity at human BKalpha channel expressed in CHOK1 cells assessed as ionic current amplitude at 30 uM at holding potential of -90 mV by population patch clamp technique relative to untreated control; assay type: cell-based; conditions: CHO-K1
Sequence (Q12791 whole entry): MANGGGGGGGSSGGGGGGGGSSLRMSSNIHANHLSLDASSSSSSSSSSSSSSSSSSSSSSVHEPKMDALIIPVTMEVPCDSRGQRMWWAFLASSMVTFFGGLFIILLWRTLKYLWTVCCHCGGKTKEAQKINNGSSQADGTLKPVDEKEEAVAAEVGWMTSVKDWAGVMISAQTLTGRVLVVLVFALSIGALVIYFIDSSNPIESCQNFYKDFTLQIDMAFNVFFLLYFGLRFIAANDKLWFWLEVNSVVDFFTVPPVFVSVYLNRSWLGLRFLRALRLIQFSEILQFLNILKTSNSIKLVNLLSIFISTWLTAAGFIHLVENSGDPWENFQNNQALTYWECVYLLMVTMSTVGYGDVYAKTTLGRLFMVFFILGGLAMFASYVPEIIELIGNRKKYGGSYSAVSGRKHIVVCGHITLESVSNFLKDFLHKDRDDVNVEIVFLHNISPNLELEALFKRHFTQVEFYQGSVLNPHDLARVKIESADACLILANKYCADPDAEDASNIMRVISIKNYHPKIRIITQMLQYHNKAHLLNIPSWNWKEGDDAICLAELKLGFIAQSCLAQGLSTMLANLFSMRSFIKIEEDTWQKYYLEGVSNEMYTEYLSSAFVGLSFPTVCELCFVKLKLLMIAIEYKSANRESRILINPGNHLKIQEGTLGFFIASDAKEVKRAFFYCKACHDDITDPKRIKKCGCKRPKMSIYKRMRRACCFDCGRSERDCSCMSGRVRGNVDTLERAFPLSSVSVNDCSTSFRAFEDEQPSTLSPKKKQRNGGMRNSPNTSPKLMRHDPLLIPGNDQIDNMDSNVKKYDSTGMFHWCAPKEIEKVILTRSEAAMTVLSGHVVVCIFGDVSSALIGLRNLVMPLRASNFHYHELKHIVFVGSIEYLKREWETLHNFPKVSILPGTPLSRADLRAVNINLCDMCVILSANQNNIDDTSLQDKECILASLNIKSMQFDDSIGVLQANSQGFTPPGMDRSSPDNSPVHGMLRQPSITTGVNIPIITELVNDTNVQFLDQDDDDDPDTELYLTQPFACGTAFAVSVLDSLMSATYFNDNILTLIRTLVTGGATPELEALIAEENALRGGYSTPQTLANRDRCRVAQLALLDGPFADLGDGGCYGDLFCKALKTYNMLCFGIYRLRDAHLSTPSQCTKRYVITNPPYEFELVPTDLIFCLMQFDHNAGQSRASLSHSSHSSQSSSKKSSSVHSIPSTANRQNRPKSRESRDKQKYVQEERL
observed property: Activity (%)

// known answers, use as guide
Just so you know, measured Activity for CCCCCCCCCCCC(=O)Nc1cc2c(cc1C(C)C)CC[C@H]1[C@](C)(C(=O)O)CCC[C@]21C came out at 103

Just so you know, measured Activity for CCC(=O)Nc1cc2c(cc1C(C)C)CC[C@H]1[C@](C)(C(=O)O)CCC[C@]21C came out at 90.2

The reported value for CC(C)c1cc2c(cc1NC(=S)Nc1cccc(C(F)(F)F)c1)[C@@]1(C)CCC[C@@](C)(C(=O)O)[C@@H]1CC2 in terms of Activity is 143

GET /value?item= CC(C)c1cc2c(cc1NC(=O)Nc1cccc(C(F)(F)F)c1)[C@@]1(C)CCC[C@@](C)(C(=O)O)[C@@H]1CC2 &field=Activity returns 99.9

a: CC(C)c1ccc2c(c1N)CC[C@H]1[C@](C)(C(=O)O)CCC[C@]21C
b: CC(C)c1cc2c(cc1NC(=O)Nc1ccc(C(F)(F)F)cc1)[C@@]1(C)CCC[C@@](C)(C(=O)O)[C@@H]1CC2
Enquiry: Of a versus b , which is the one with smaller reported Activity? Respond using the label that marks the chosen record.
Return: a

Origin of the recorded values: ChEMBL document CHEMBL1141715
